# Test Target: Mitogen-activated protein kinase 14 (Homo sapiens, UniProt Q16539)
# Sequence (Q16539 whole entry): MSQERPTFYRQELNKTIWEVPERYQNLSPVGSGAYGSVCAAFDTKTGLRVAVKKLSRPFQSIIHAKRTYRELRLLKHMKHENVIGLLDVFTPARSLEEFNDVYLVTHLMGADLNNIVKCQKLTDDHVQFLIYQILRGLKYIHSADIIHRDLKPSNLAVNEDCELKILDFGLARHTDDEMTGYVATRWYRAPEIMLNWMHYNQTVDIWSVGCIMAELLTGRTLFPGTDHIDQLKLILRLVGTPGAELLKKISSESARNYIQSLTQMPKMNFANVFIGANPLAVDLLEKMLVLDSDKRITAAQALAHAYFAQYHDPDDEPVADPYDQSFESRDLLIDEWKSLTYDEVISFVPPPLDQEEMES
# Assay Remarks: Inhibition of p38a MAPK (unknown origin) by radiometric assay
Readout: pIC50
Quick note: pIC50 means taking -log10 of the concentration in moles per liter.

[[record]]
compound_string = "Cn1c(-c2cn(CC(=O)O)nn2)nc(-c2ccc(F)cc2)c1-c1ccncc1"
number = 6.13

[[record]]
compound_string = "COC(=O)c1cccc(-n2cc(-c3nc(-c4ccc(F)cc4)c(-c4ccncc4)n3C)nn2)c1"
number = 6.00


Q: Data request, read-out pIC50, for `Cn1c(-c2cnnn2CC(=O)O)nc(-c2ccc(F)cc2)c1-c1ccncc1`
Result: 5.38

Q: Quick one: pIC50 of `Cn1c(-c2cn(-c3cccc(C(=O)NCCCO)c3)nn2)nc(-c2ccc(F)cc2)c1-c1ccncc1` ?
Result: 6.54

Q: Please report the recorded pIC50 for `O=C(c1ccc(-n2cc(-c3nc(-c4ccc(F)cc4)c(-c4ccncc4)o3)nn2)cc1)N1CCN(CCO)CC1` .
Result: 5.62
